Origin of measurements: ChEMBL document CHEMBL1177681

Assay: Selectivity index, CC50 for human MT4 cells to EC50 for wild type HIV1 3B
Assay type: toxicity, cell-based
Conditions: read-out: Ratio CC50/EC50
Readout Kind: selectivity ratio

Recorded results for 3 compounds are shown here.
| Compound | Reading |
| --- | --- |
| Cc1cc(Br)cc(Br)c1Oc1nc(Nc2ccc(C#N)cc2)nc2ccccc12 | 7930 |
| CCOc1cc(C#N)cc(Cl)c1Oc1nc(Nc2ccc(C#N)cc2)nc2ccccc12 | 2970 |
| N#Cc1ccc(Nc2nc(Oc3ccccc3Cl)c3ccccc3n2)cc1 | 982 |

// each listed compound needs a value for selectivity ratio
1. COc1ccc(Oc2nc(Nc3ccc(C#N)cc3)nc3ccccc23)cc1
2. Cc1cc(C#N)cc(C)c1Oc1nc(Nc2ccc(C#N)cc2)nc2ccccc12
3. CCCOc1cc(C#N)cc(OCC)c1Oc1nc(Nc2ccc(C#N)cc2)nc2ccccc12
4. CC(C)Nc1cccnc1N1CCN(C(=O)c2cc3cc(NS(C)(=O)=O)ccc3[nH]2)CC1 [DELAVIRDINE]
5. N#Cc1ccc(Nc2nc(Oc3ccc(Br)cc3)c3ccccc3n2)cc1
6. N#Cc1ccc(Nc2nc(Oc3ccc(Cl)cc3Cl)c3ccccc3n2)cc1
7. Cc1cc(C)c(Oc2nc(Nc3ccc(C#N)cc3)nc3ccccc23)c(C)c1

> 1790
112000
2080
> 92
810
1410
> 3220
